# Tested on: N. gonorrhoeae CDC-0197
# EXPERIMENT DESCRIPTION: Liquid broth MIC in Fastidious broth
# CONDITION DESCRIPTION: Neisseria gonorrhoeae, CDC0197, read-out: Minimum Inhibitory Concentration (MIC), N. gonorrhoeae CDC-0197
Parameter: MIC. Scope: all listed entries.
ENDPOINT: MIC

- COMPOUND: "O=C(N[C@@H](C(=O)N[C@H]1Cc2cccc(C(=O)O)c2OB1O)c1ccc(P(=O)(O)O)cc1)c1ccc(C(F)(F)F)cn1 (single isomer, unassigned) [Example 193]"
  REPORTED MEASUREMENT: "< 1 µg/mL"
- COMPOUND: "CS(=O)(=O)N1CCN(C(=O)N[C@H](C(=O)N[C@H]2Cc3cccc(C(=O)O)c3OB2O)c2ccc(P(=O)(O)O)cc2)C1=O (single isomer, unassigned) [Example 5]"
  REPORTED MEASUREMENT: "< 1 µg/mL"
- COMPOUND: "O=C(O)c1cccc2c1OB(O)[C@@H](NC(=O)[C@H](NC(=O)c1ccn[nH]c1=O)c1ccc(P(=O)(O)O)cc1)C2 (single isomer, unassigned) [Example 178]"
  REPORTED MEASUREMENT: "< 1 µg/mL"
- COMPOUND: "CN(CCN1CCN(C(=O)N[C@@H](C(=O)N[C@H]2Cc3ccc(F)c(C(=O)O)c3OB2O)c2cc(F)c(O)c(O)c2Cl)C(=O)C1=O)Cc1cccc(C(N)=O)c1 [Example 225]"
  REPORTED MEASUREMENT: "16 to 32 µg/mL"
